Molecular target: Endoribonuclease toxin MazF (Escherichia coli K-12)
Sequence (P0AE70 whole entry): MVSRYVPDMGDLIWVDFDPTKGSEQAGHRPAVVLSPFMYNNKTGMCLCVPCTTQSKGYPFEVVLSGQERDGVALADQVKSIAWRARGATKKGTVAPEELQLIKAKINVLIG
Assay: MazF toxin RNase activators, dose response, biochemical, fluorescence, single-stranded RNA substrate, uHTS hits (AID 588481)
Type: functional
Calls of active or inactive are those of the source. Rule as the data show it: active = EC50 of 20 µM or less and inactive = more.

{"compound": "O=c1oc(/C=C/c2ccccc2)nc2sc3c(c12)CCC3", "EC50": "> 99 µM (inactive)"}
{"compound": "CCN1C(=O)C(=Cc2cc(C)n(C3CC3)c2C)C(=O)N(CC)C1=S", "EC50": "44.4 µM (inactive)"}
{"compound": "Cc1ccc(C2=CC(c3ccc(N(C)C)cc3)n3nnnc3N2)cc1 (stereo unspecified)", "EC50": "> 99 µM (inactive)"}
{"compound": "Cc1c(C(=O)Nc2ccc3c(c2)OCO3)sc2nc(-c3ccccc3)cn12", "EC50": "> 99 µM (inactive)"}
{"compound": "Oc1ccc2ccccc2c1-c1sc(Nc2ccccc2)n[n+]1-c1ccc(F)cc1", "EC50": "> 99 µM (inactive)"}
{"compound": "Cn1cc(Cl)c(C(=O)N/N=C/c2ccc3c4c(cccc24)CC3)n1", "EC50": "> 99 µM (inactive)"}
